- Tested on: A549/ATCC NSCLC
- Protocol: NCI-60 one-dose screen, 48 h
- Condition summary: 10 µM unless noted
- Protocol: Growth inhibition of the A549/ATCC human Non-Small Cell Lung tumor cell line is measured as a screen for anti-cancer activity. Cells are grown in 96 well plates and exposed to the test compound for 48 hours. Compounds are tested at a single concentration, which is 10^-5 M for most compounds. The reported endpoint is percent growth (GI% or GIPRCNT), where numbers from 0 - 100% represent growth inhibition, and numbers from -100% - 0 represent cell death. […]
This is part of a sample that, as a whole, favours compounds with a hit. Of some 83,000 tested, about 20% had one in any assay. Active and inactive are the calls of the source. How the source made its calls: active means growth percent below 10; inactive means the rest.
Labels: class 1 = active, class 0 = inactive

[
  {
    "Compound": "O=C1Nc2ccc(Br)cc2/C1=N\\N=C/c1cn(Cc2ccccc2)c2ccccc12",
    "System name": "A549/ATCC NSCLC",
    "Group label": "class 0"
  },
  {
    "Compound": "Cc1c(O)c(=O)ccn1-c1nc2ccccc2s1",
    "System name": "A549/ATCC NSCLC",
    "Group label": "class 0"
  },
  {
    "Compound": "C=C1C(=O)O[C@H]2[C@H]1CC/C(COC(=O)CCC(=O)OC/C1=C/CC[C@@]3(C)O[C@H]3[C@H]3OC(=O)C(=C)[C@@H]3CC1)=C\\CC[C@@]1(C)O[C@@H]21",
    "System name": "A549/ATCC NSCLC",
    "Group label": "class 0"
  },
  {
    "Compound": "COC1=CC=CC2(OC)C3(O)CCCc4cccc(c43)N3C(=O)COC132 (stereo not given)",
    "System name": "A549/ATCC NSCLC",
    "Group label": "class 0"
  },
  {
    "Compound": "O=C(CSC(=S)N1CCCCC1)Nc1ccccc1",
    "System name": "A549/ATCC NSCLC",
    "Group label": "class 0"
  },
  {
    "Compound": "CN(C)[C@@H]1C(=O)C(C(N)=O)=C(O)[C@@]2(O)C(=O)C3=C(O)c4c(O)cc(CN5CCc6ccccc6C5)c(Cl)c4C[C@H]3C[C@@H]12",
    "System name": "A549/ATCC NSCLC",
    "Group label": "class 1"
  },
  {
    "Compound": "COc1cc2cc(c1Cl)N(C)C(=O)C[C@H](OC(=O)[C@H](C)N(C)C(=O)CCS)C[C@]1(C)O[C@H]1[C@H](C)[C@@H]1C[C@@](O)(NC(=O)O1)[C@H](OC)/C=C/C=C(\\C)C2",
    "System name": "A549/ATCC NSCLC",
    "Group label": "class 0"
  },
  {
    "Compound": "O=C(Nc1ccc2ncnc(Nc3cccc(C(F)(F)F)c3)c2c1)c1cccs1",
    "System name": "A549/ATCC NSCLC",
    "Group label": "class 0"
  },
  {
    "Compound": "CCOC(=O)C(=Cc1c(-c2ccccc2)[nH]c2ccccc12)C(=O)OCC",
    "System name": "A549/ATCC NSCLC",
    "Group label": "class 0"
  },
  {
    "Compound": "COc1ccc2nc(-c3ccc(OC)c(OC)c3)cc(-c3nnc(SCC(=O)Nc4ccc(C(C)=O)cc4)o3)c2c1",
    "System name": "A549/ATCC NSCLC",
    "Group label": "class 0"
  }
]
